B1: SH3 and PX domain-containing protein 2B, residues 155 to 209; numbered along this chain, A1X283 (parent)
chain: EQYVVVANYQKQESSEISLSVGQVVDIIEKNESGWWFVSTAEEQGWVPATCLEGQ

Variants of: B1
Assay: abundance fitness (aPCA) (normalised: wild type 0, dead -1); higher = more abundant; growth selection in yeast, the domain comes from the species named
Settings: Homo sapiens
experimental.readout: abundance fitness
Output: the number by itself.

# input Quickly give me recorded abundance fitness for EQYVVVANYQKQESSEISLSVGQVVDIIEKNESGWWKVSTAEEQGWVPATCLEGQ [F37K]
# output 0.066

# input Quickly give me recorded abundance fitness for EQYVVVANYQKQESSEISLSVGFVVDIIEKNESGWWFVSTAEEQGWVPATCLEGQ [Q23F]
# output -0.741

# input Quickly give me recorded abundance fitness for EQYVVVANYQKQESSEISLSVGQVVDIIEKNESGWWFVSTAEEQGWVPATCLECQ [G54C]
# output -0.04

# input Quickly give me recorded abundance fitness for EQYVVVANYQKQESSEISLSVPQVVDIIEKNESGWWFVSTAEEQGWVPATCLEGQ [G22P]
# output -0.83

# input Quickly give me recorded abundance fitness for EQYVVVANYQKQESAEISLSVGQVVDIIEKNESGWWFVSTAEEQGWVPATCLEGQ [S15A]
# output -0.01

# input Quickly give me recorded abundance fitness for EQYVVVANYMKQESSEISLSVGQVVDIIEKNESGWWFVSTAEEQGWVPATCLEGQ [Q10M]
# output -0.476

# input Quickly give me recorded abundance fitness for EQYVVVANYQKQESSEIFLSVGQVVDIIEKNESGWWFVSTAEEQGWVPATCLEGQ [S18F]
# output -0.157

# input Quickly give me recorded abundance fitness for EQYVVVANYQKQESSEISLSVGQDVDIIEKNESGWWFVSTAEEQGWVPATCLEGQ [V24D]
# output -0.277

# input Quickly give me recorded abundance fitness for EQYVVVANYQKQESSEISLSVGQVVDIIEKNESGWWFVSTAEEQGWVPAMCLEGQ [T50M]
# output -0.243

# input Quickly give me recorded abundance fitness for EQYVRVANYQKQESSEISLSVGQVVDIIEKNESGWWFVSTAEEQGWVPATCLEGQ [V5R]
# output -1.04

# input Quickly give me recorded abundance fitness for EQYVVVANYQKQESSEISLSVGQVVDIIEKFESGWWFVSTAEEQGWVPATCLEGQ [N31F]
# output -0.259

# input Quickly give me recorded abundance fitness for EQYVVVANYQKQESSEISLSVGQVVDDIEKNESGWWFVSTAEEQGWVPATCLEGQ [I27D]
# output -1.05

# input Quickly give me recorded abundance fitness for EQYVVVANYQKQESSEISLSVGQVVDIIEKNESGWWFVSTAEEQGWVPATCLEVQ [G54V]
# output 0.008

# input Quickly give me recorded abundance fitness for EQYVVVANYQKQESSEISLSVGQVVDIIEKNESGWWFVSTAEEQGWVPAWCLEGQ [T50W]
# output 0.049

# input Quickly give me recorded abundance fitness for EQYVVVANYQKQESSEISLSTGQVVDIIEKNESGWWFVSTAEEQGWVPATCLEGQ [V21T]
# output -0.061

# input Quickly give me recorded abundance fitness for EQYVVVANYQKQESSEISLSVGQVVDIIEKNESGWWMVSTAEEQGWVPATCLEGQ [F37M]
# output -0.069

# input Quickly give me recorded abundance fitness for EQYVVVANYQKQESSEISLSVGQVVDIIEKNESGWWFVSYAEEQGWVPATCLEGQ [T40Y]
# output -0.151

# input Quickly give me recorded abundance fitness for EQYVVVANYQKQESSEISLSVGQVVDIIEKTESGWWFVSTAEEQGWVPATCLEGQ [N31T]
# output -0.154

# input Quickly give me recorded abundance fitness for EQYVVVANYQKQESSEISLSVGQVVDIIEKNESGWWFVSTAEEQGWVPWTCLEGQ [A49W]
# output -0.586

# input Quickly give me recorded abundance fitness for EQYVVVANYQKQESSEISLSVGQVVDIIKKNESGWWFVSTAEEQGWVPATCLEGQ [E29K]
# output 0.022

# input Quickly give me recorded abundance fitness for EQYVVVANYQKQESSEISLSVGQVVDIIEKNESGWWFVSTAEEQGWVPATCLQGQ [E53Q]
# output 0.027

# input Quickly give me recorded abundance fitness for EQYVVVANYQSQESSEISLSVGQVVDIIEKNESGWWFVSTAEEQGWVPATCLEGQ [K11S]
# output -0.072

# input Quickly give me recorded abundance fitness for EQYVVVANYQKQESSEISLSVGQVVDIIEKNESGWWFVSTAEEQGWHPATCLEGQ [V47H]
# output -0.967

# input Quickly give me recorded abundance fitness for EQYVVVHNYQKQESSEISLSVGQVVDIIEKNESGWWFVSTAEEQGWVPATCLEGQ [A7H]
# output -0.394

# input Quickly give me recorded abundance fitness for EQYHVVANYQKQESSEISLSVGQVVDIIEKNESGWWFVSTAEEQGWVPATCLEGQ [V4H]
# output -0.308

# input Quickly give me recorded abundance fitness for EQYVVVANYQKQESSEISLSVGQVVDIIEKNESGWWFVSTAEEQGWVPAECLEGQ [T50E]
# output -0.096

# input Quickly give me recorded abundance fitness for EQYVVVANYQKQESSEISLSVGQVEDIIEKNESGWWFVSTAEEQGWVPATCLEGQ [V25E]
# output -0.752

# input Quickly give me recorded abundance fitness for EQYVVVANYQKQESSEISLSVGQVVDIIEKNESGWWFVSTAEEQGWVPASCLEGQ [T50S]
# output -0.046

# input Quickly give me recorded abundance fitness for EQYVVVANYQKQESSEMSLSVGQVVDIIEKNESGWWFVSTAEEQGWVPATCLEGQ [I17M]
# output -0.053

# input Quickly give me recorded abundance fitness for EQYVVVANYQKQESSEISLSVGQWVDIIEKNESGWWFVSTAEEQGWVPATCLEGQ [V24W]
# output -0.075

# input Quickly give me recorded abundance fitness for EQYVVVANYQKQESSEISLSVGQVVDIIEKNESGMWFVSTAEEQGWVPATCLEGQ [W35M]
# output 0.027

# input Quickly give me recorded abundance fitness for EQYVVVANYQKQESSEISLSVGHVVDIIEKNESGWWFVSTAEEQGWVPATCLEGQ [Q23H]
# output -0.136

# input Quickly give me recorded abundance fitness for EQYVVVANYQKQESSEISLSKGQVVDIIEKNESGWWFVSTAEEQGWVPATCLEGQ [V21K]
# output 0.092

# input Quickly give me recorded abundance fitness for EQYVVLANYQKQESSEISLSVGQVVDIIEKNESGWWFVSTAEEQGWVPATCLEGQ [V6L]
# output -0.199

# input Quickly give me recorded abundance fitness for EQYVVVANYQKQESSEISLWVGQVVDIIEKNESGWWFVSTAEEQGWVPATCLEGQ [S20W]
# output -0.165

# input Quickly give me recorded abundance fitness for EQYVVVANYQKQESSEISLSVGQVVDIIEKNESGWWFVSTAEEQGWNPATCLEGQ [V47N]
# output -1.05

# input Quickly give me recorded abundance fitness for EQYVVVANYQKQESSEISLSVGQVVDIIEKNESGWWFVSTQEEQGWVPATCLEGQ [A41Q]
# output -0.133

# input Quickly give me recorded abundance fitness for EQYVVVANYQKQESSEISLSVGQVVDQIEKNESGWWFVSTAEEQGWVPATCLEGQ [I27Q]
# output -0.609

# input Quickly give me recorded abundance fitness for EQYVVVANYQKQESSEISLSVGQIVDIIEKNESGWWFVSTAEEQGWVPATCLEGQ [V24I]
# output -0.026

# input Quickly give me recorded abundance fitness for EQYVVVANYQKQKSSEISLSVGQVVDIIEKNESGWWFVSTAEEQGWVPATCLEGQ [E13K]
# output -0.015

# input Quickly give me recorded abundance fitness for EQYVVVANYQKQESSEISLSVGQVVSIIEKNESGWWFVSTAEEQGWVPATCLEGQ [D26S]
# output -0.122

# input Quickly give me recorded abundance fitness for EQYVVVANYQKQESSEISLSVGQVVDIIEKNESGWYFVSTAEEQGWVPATCLEGQ [W36Y]
# output -0.099

# input Quickly give me recorded abundance fitness for EQYVVVANYKKQESSEISLSVGQVVDIIEKNESGWWFVSTAEEQGWVPATCLEGQ [Q10K]
# output -0.192

# input Quickly give me recorded abundance fitness for EQYVVVANYQKQESSTISLSVGQVVDIIEKNESGWWFVSTAEEQGWVPATCLEGQ [E16T]
# output -0.178

# input Quickly give me recorded abundance fitness for EQYVVVANYQKQESSPISLSVGQVVDIIEKNESGWWFVSTAEEQGWVPATCLEGQ [E16P]
# output -0.667

# input Quickly give me recorded abundance fitness for EQYVVVANYQKQESSEISLSVGQVVDIIEKNESGWWFVSTAEEQGWVPATCLEMQ [G54M]
# output -0.098

# input Quickly give me recorded abundance fitness for EQYVVVANYQKQESSEISLSVGQVMDIIEKNESGWWFVSTAEEQGWVPATCLEGQ [V25M]
# output -0.801

# input Quickly give me recorded abundance fitness for EQYVVVANYQKQESSEISLSVGQHVDIIEKNESGWWFVSTAEEQGWVPATCLEGQ [V24H]
# output -0.284

# input Quickly give me recorded abundance fitness for EQYVVVANYQKQESSEISLSVGQVVDIIEKNYSGWWFVSTAEEQGWVPATCLEGQ [E32Y]
# output -0.345

# input Quickly give me recorded abundance fitness for EQYVVVANYQKQESSEISLSVGQVVDIIEKNESGWWFVSTAPEQGWVPATCLEGQ [E42P]
# output -0.431

# input Quickly give me recorded abundance fitness for EQYVVVANYQKQESSEISLSVGQVVDIFEKNESGWWFVSTAEEQGWVPATCLEGQ [I28F]
# output -0.214

# input Quickly give me recorded abundance fitness for EQYVVVANYQKQESSEISLSVGQVVDIIEKNESGWWFVSTAEEQGWVPATCWEGQ [L52W]
# output -0.775

# input Quickly give me recorded abundance fitness for EQYVVVANYQKQESSEISLSVGQVVDIIEKNESGWWFVSWAEEQGWVPATCLEGQ [T40W]
# output -0.354

# input Quickly give me recorded abundance fitness for EQYVVVANYQKQESSEISPSVGQVVDIIEKNESGWWFVSTAEEQGWVPATCLEGQ [L19P]
# output -0.831

# input Quickly give me recorded abundance fitness for EQYVVVANYQKQESSEISLSVKQVVDIIEKNESGWWFVSTAEEQGWVPATCLEGQ [G22K]
# output -0.789

Where do these numbers come from? They come from the Human Domainome abundance scans (Beltran et al. 2025).
